- Assay system: [35S]-TBPS binding in rat brain cortical membranes
- Measurement notes: Steroid inhibition of [35S]-TBPS binding, rat brain cortical membranes
- Test conditions: 3 nM [35S]-TBPS, in the presence of 5 μM GABA, read-out: 35S-TBPS Radioligand Displacement (IC50)
As shown below, each of these compounds has a reported IC50 value.

{"Compound": "COC[C@]12CC[C@@](C)(O)C[C@@H]1CC[C@H]1[C@@H]3CC[C@H](C(=O)Cn4nc5cc(F)c(F)cc5n4)[C@@]3(C)CC[C@@H]12 [Compound 97]", "IC50": "10 to 50 nM"}

Inquiry: # get_value(readout= IC50, system= [35S]-TBPS binding in rat brain cortical membranes) for COC[C@]12CC[C@@](C)(O)C[C@@H]1CC[C@H]1[C@@H]3CC[C@H](C(=O)Cn4nnc5c(OC)cc(OC)cc54)[C@@]3(C)CC[C@@H]12 [Compound 66]
Reply text: 10 to 50 nM

Inquiry: # get_value(readout= IC50, system= [35S]-TBPS binding in rat brain cortical membranes) for COC[C@]12CC[C@@H](O)C[C@@H]1CC[C@H]1[C@@H]3CC[C@H](C(=O)Cn4ccnn4)[C@@]3(C)CC[C@@H]12 [Compound 91]
Reply text: 100 to 500 nM

Inquiry: # get_value(readout= IC50, system= [35S]-TBPS binding in rat brain cortical membranes) for COC[C@]12CC[C@@](C)(O)C[C@@H]1CC[C@H]1[C@@H]3CC[C@H](C(=O)Cn4nc5ccc(F)cc5n4)[C@@]3(C)CC[C@@H]12 [Compound 43]
Reply text: < 10 nM

Inquiry: # get_value(readout= IC50, system= [35S]-TBPS binding in rat brain cortical membranes) for COC[C@]12CC[C@@](C)(O)C[C@@H]1CC[C@H]1[C@@H]3CC[C@H](C(=O)Cn4nnc(C)n4)[C@@]3(C)CC[C@@H]12 [Compound 17]
Reply text: > 500 nM

Inquiry: # get_value(readout= IC50, system= [35S]-TBPS binding in rat brain cortical membranes) for COC[C@]12CC[C@@](C)(O)C[C@@H]1CC[C@H]1[C@@H]3CC[C@H](C(=O)Cn4nc5cc(Cl)cnc5n4)[C@@]3(C)CC[C@@H]12 [Compound 99]
Reply text: 10 to 50 nM

The reported numbers originate from patent US12071453B2.
